pIC50: −log10 of the molar value.
Test system Cytochrome P450 1A2 (Homo sapiens, UniProt P05177), pIC50 listed for each of the compounds.

Some compounds with recorded pIC50:
CCN1CCN(c2ccc(Nc3cc(N(C)C(=O)Nc4c(Cl)c(OC)cc(OC)c4Cl)ncn3)cc2)CC1.O=P(O)(O)O [INFIGRATINIB PHOSPHATE]
< 5.00
COc1cc(OC)c(Cl)c(NC(=O)N(C)c2cc(Nc3cccc(N4CCN(C)CC4)c3)ncn2)c1Cl
< 5.00

Please examine the following record next.
Lookup: Item CCN1CCC(c2ccc(Nc3cc(N(C)C(=O)Nc4c(Cl)c(OC)cc(OC)c4Cl)ncn3)cc2)CC1 with Cytochrome P450 1A2 (Homo sapiens, UniProt P05177) - pIC50?
Found: < 5.00

* * *

target: Mitogen-activated protein kinase kinase kinase 8 (Homo sapiens, UniProt P41279); experiment: Inhibition of recombinant COT
Sequence (P41279 whole entry): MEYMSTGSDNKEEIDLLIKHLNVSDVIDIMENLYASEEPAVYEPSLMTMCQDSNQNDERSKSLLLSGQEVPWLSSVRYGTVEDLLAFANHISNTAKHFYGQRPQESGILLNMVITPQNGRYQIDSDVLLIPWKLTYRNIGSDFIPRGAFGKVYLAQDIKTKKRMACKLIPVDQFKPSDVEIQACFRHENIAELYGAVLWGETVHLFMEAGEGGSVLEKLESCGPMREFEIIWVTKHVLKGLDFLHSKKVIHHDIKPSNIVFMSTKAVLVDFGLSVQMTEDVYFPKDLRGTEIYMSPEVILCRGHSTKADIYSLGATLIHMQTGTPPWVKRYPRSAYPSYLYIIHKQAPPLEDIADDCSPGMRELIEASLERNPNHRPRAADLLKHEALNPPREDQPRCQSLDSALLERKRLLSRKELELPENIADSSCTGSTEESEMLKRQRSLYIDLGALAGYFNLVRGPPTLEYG
pIC50: −log10 of the molar value.
Property: pIC50

Lookup: Quick one: pIC50 of CCN1CCN(c2ccc(Nc3cc(N(C)C(=O)Nc4c(Cl)c(OC)cc(OC)c4Cl)ncn3)cc2)CC1.O=P(O)(O)O [INFIGRATINIB PHOSPHATE] ?
Found: < 5.00

* * *

system: RT-4; assay: Antiproliferative activity against human RT4 cells overexpressing wild type FGFR3 after 72 hrs; format: functional, cell-based; conditions: RT-4, 72 h
Property: pIC50
// pIC50 here means minus log10 of the molar concentration (mol/L)

Lookup: Quick one: pIC50 of CCN1CCN(c2ccc(Nc3cc(N(C)C(=O)Nc4c(Cl)c(OC)cc(OC)c4Cl)ncn3)cc2)CC1.O=P(O)(O)O [INFIGRATINIB PHOSPHATE] ?
Found: 7.52

* * *

target: Insulin receptor (Homo sapiens, UniProt P06213); experiment: Inhibition of recombinant INSR
Sequence (P06213 28-758 limits assumed): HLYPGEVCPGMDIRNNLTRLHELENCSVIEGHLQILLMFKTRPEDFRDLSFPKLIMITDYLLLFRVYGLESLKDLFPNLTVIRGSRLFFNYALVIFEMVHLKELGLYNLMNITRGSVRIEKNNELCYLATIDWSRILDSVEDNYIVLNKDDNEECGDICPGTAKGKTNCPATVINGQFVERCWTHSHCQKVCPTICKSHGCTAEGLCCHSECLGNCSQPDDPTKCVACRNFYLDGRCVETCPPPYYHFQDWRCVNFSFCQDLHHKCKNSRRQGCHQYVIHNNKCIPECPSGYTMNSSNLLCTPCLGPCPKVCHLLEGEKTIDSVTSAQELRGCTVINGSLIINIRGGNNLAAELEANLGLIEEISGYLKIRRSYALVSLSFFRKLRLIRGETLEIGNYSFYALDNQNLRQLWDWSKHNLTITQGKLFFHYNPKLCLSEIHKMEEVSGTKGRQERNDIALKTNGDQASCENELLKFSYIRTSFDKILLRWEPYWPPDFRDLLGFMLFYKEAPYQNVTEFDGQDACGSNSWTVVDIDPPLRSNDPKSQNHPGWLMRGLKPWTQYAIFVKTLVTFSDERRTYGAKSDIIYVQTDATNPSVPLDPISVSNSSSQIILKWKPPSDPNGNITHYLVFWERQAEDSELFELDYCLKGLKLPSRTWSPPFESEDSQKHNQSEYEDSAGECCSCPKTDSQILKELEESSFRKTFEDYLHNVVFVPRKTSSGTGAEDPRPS
Sequence (P06213 763-1382 limits assumed): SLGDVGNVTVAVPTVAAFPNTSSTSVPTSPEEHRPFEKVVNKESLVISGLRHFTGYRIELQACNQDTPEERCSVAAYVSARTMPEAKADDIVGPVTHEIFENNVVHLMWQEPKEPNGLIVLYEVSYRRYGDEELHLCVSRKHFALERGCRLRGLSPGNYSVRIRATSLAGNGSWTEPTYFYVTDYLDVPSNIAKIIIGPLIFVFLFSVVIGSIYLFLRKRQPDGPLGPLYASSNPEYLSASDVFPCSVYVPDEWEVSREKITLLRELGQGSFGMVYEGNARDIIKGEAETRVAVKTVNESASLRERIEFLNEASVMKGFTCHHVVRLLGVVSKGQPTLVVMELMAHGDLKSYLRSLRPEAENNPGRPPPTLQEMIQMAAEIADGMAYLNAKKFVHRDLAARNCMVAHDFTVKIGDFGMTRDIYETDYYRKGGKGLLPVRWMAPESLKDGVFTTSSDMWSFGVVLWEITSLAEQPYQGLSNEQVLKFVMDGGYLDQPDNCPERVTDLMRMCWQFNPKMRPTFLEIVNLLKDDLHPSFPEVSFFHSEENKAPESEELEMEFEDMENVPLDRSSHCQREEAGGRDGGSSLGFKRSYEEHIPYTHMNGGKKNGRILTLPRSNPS
Property: IC50

Lookup: Quick one: IC50 of CCN1CCN(c2ccc(Nc3cc(N(C)C(=O)Nc4c(Cl)c(OC)cc(OC)c4Cl)ncn3)cc2)CC1.O=P(O)(O)O [INFIGRATINIB PHOSPHATE] ?
Found: > 10 µM

* * *

molecular target: Tyrosine-protein kinase HCK (Homo sapiens); experiment: Inhibition of recombinant HCK
Property: IC50

Lookup: Quick one: IC50 of CCN1CCN(c2ccc(Nc3cc(N(C)C(=O)Nc4c(Cl)c(OC)cc(OC)c4Cl)ncn3)cc2)CC1.O=P(O)(O)O [INFIGRATINIB PHOSPHATE] ?
Found: > 10 µM

* * *

assay: Plasma clearance in RT112/luc1 cells implanted athymic nude mouse at 5 mg/kg, iv by LC/MS/MS analysis; format: ADME, organism-based; design: dose 5 mg/kg, route intravenous
Property: clearance (mL/min/kg)
Hi! Could you send only the number? It should be in mL/min/kg, unit omitted.

Lookup: Quick one: clearance of CCN1CCN(c2ccc(Nc3cc(N(C)C(=O)Nc4c(Cl)c(OC)cc(OC)c4Cl)ncn3)cc2)CC1.O=P(O)(O)O [INFIGRATINIB PHOSPHATE] ?
Found: 55

* * *

target: Phosphatidylinositol 4,5-bisphosphate 3-kinase catalytic subunit beta isoform (Homo sapiens); test: Inhibition of recombinant PI3Kbeta by luminescent kinase assay
Sequence (P42338 whole entry, canonical isoform): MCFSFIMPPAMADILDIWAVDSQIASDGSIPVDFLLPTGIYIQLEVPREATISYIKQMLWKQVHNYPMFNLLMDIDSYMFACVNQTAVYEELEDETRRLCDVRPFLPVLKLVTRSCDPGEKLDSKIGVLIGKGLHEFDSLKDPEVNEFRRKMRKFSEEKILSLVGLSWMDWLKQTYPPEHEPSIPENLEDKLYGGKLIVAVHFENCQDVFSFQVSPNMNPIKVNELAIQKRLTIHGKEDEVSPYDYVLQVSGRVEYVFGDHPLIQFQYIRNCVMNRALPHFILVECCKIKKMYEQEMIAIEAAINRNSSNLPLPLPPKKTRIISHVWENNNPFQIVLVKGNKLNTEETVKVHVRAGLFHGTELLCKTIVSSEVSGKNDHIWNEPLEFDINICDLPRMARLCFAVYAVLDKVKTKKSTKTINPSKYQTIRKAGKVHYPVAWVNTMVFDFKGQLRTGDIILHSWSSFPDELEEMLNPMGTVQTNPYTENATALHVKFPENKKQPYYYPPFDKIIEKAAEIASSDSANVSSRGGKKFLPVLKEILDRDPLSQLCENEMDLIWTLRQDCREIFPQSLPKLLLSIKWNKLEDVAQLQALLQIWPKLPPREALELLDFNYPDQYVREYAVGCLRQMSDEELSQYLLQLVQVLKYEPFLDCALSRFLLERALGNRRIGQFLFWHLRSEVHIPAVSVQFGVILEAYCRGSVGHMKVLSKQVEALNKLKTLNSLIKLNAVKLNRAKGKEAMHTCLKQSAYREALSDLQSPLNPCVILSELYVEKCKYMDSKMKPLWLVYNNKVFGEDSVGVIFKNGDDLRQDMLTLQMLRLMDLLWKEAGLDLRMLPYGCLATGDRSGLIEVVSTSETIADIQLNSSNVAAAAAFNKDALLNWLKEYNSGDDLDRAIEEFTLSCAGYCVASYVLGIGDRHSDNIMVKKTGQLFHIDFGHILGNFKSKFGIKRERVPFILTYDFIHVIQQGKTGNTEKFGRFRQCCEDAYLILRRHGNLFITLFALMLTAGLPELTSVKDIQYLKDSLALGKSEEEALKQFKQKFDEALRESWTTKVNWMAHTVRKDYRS
Property: IC50

Lookup: Quick one: IC50 of CCN1CCN(c2ccc(Nc3cc(N(C)C(=O)Nc4c(Cl)c(OC)cc(OC)c4Cl)ncn3)cc2)CC1.O=P(O)(O)O [INFIGRATINIB PHOSPHATE] ?
Found: > 9 µM

* * *

biological target: ALK tyrosine kinase receptor (Homo sapiens, UniProt Q9UM73); assay: Inhibition of recombinant ALK
Sequence (Q9UM73 whole entry): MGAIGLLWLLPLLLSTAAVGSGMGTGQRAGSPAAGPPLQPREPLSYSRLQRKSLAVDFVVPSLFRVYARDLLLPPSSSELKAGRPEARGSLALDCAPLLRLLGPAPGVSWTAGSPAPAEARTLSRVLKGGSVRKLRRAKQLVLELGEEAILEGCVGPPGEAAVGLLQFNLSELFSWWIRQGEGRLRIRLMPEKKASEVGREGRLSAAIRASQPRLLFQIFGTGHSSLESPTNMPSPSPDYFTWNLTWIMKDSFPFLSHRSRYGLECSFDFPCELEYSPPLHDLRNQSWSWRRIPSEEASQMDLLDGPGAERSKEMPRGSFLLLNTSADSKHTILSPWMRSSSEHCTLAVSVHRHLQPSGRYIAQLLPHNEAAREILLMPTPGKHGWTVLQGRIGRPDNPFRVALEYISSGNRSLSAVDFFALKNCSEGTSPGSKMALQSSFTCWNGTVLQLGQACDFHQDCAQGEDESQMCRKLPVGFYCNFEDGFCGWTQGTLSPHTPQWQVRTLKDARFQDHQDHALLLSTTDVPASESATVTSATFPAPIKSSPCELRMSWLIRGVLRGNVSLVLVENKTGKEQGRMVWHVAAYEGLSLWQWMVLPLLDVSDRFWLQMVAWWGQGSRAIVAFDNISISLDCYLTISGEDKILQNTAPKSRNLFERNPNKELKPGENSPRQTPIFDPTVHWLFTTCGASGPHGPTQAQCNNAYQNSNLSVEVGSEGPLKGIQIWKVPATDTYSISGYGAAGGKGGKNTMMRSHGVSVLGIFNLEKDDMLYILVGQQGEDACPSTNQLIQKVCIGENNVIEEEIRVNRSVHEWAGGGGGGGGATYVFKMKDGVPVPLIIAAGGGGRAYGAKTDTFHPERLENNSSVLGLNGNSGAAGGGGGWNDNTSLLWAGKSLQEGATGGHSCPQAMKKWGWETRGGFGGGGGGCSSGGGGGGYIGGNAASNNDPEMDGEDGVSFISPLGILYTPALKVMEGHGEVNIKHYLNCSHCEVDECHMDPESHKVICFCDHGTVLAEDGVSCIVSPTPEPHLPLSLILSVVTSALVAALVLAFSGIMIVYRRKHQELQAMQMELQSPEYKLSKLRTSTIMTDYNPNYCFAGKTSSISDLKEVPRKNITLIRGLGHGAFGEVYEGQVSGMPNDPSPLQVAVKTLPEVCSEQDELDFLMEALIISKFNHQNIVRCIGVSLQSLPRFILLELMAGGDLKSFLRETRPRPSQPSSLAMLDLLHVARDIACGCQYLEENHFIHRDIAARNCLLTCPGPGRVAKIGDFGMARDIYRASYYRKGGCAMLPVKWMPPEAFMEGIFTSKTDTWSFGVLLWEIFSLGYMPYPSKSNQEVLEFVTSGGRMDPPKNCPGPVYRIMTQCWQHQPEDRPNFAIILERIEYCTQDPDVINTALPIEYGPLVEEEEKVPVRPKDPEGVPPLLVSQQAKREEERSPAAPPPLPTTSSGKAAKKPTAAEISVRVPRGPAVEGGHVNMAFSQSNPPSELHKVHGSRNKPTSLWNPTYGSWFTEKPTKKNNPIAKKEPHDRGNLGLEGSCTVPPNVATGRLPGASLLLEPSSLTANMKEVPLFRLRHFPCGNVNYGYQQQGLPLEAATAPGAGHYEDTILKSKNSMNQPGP
Property: IC50

Lookup: Quick one: IC50 of CCN1CCN(c2ccc(Nc3cc(N(C)C(=O)Nc4c(Cl)c(OC)cc(OC)c4Cl)ncn3)cc2)CC1.O=P(O)(O)O [INFIGRATINIB PHOSPHATE] ?
Found: > 10 µM

* * *

target: Serine/threonine-protein kinase WNK1 (Homo sapiens, UniProt Q9H4A3); assay: Inhibition of recombinant WNK1
Property: IC50

Lookup: Quick one: IC50 of CCN1CCN(c2ccc(Nc3cc(N(C)C(=O)Nc4c(Cl)c(OC)cc(OC)c4Cl)ncn3)cc2)CC1.O=P(O)(O)O [INFIGRATINIB PHOSPHATE] ?
Found: > 10 µM

* * *

test: Cmax in plasma of RT112/luc1 cells implanted athymic nude mouse at 5 mg/kg, iv by LC/MS/MS analysis; assay type: ADME, organism-based; design: dose 5 mg/kg, route intravenous
Property: Cmax (nM)
Hi! Could you send only the number? It should be in nM, unit omitted.

Lookup: Quick one: Cmax of CCN1CCN(c2ccc(Nc3cc(N(C)C(=O)Nc4c(Cl)c(OC)cc(OC)c4Cl)ncn3)cc2)CC1.O=P(O)(O)O [INFIGRATINIB PHOSPHATE] ?
Found: 860

* * *

target: Serine/threonine-protein kinase N2 (Homo sapiens, UniProt Q16513); test: Inhibition of recombinant PKN2
pIC50: −log10 of the molar value.
Property: pIC50

Lookup: Item CCN1CCN(c2ccc(Nc3cc(N(C)C(=O)Nc4c(Cl)c(OC)cc(OC)c4Cl)ncn3)cc2)CC1.O=P(O)(O)O [INFIGRATINIB PHOSPHATE] with Serine/threonine-protein kinase N2 (Homo sapiens, UniProt Q16513) - pIC50?
Found: < 5.00

* * *

target: Cytochrome P450 3A4 (Homo sapiens); experiment: Inhibition of CYP3A4 using DBF as substrate
Sequence (P08684 whole entry): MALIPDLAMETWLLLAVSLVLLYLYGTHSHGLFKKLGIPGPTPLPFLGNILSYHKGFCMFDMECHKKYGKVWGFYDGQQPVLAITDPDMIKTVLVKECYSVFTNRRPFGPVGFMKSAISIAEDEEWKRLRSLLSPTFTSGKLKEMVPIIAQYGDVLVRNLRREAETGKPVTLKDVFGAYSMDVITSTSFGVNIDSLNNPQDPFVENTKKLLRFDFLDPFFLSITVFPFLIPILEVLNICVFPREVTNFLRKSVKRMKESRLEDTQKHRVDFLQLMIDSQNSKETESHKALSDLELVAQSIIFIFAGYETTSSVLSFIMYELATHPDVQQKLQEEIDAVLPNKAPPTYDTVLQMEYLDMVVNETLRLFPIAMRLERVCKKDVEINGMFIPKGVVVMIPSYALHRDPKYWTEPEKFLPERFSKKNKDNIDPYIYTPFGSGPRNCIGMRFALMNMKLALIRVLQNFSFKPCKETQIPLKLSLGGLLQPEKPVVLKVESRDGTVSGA
pIC50: −log10 of the molar value.
Property: pIC50

COc1cc(OC)c(Cl)c(NC(=O)N(C)c2cc(Nc3cccc(CN4CCN(C)CC4)c3)ncn2)c1Cl
< 5.00
COc1cc(OC)c(Cl)c(NC(=O)N(C)c2cc(Nc3ccc(CCCN(C)C)cc3)ncn2)c1Cl
< 5.00

Please examine the following record next.
Lookup: Quick one: pIC50 of COc1cc(OC)c(Cl)c(NC(=O)N(C)c2cc(Nc3cccc(N4CCN(C)CC4)c3)ncn2)c1Cl ?
Found: < 5.00
